Target: IDO1 (Homo sapiens (Human), UniProt P14902)
Sequence (P14902 whole entry): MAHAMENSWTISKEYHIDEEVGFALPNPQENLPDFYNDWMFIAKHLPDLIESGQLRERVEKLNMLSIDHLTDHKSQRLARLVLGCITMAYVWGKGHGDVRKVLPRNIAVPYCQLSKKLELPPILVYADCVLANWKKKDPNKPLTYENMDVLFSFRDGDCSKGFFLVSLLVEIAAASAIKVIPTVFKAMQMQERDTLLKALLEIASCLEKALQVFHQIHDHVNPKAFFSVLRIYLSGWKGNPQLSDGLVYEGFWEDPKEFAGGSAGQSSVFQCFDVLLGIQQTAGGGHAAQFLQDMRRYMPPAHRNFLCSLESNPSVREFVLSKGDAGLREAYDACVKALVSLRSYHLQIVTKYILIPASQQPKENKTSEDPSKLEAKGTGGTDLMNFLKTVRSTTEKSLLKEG
Test: IDO1 Cellular Assay in Frozen HEK293 Cells Transiently Transfected with Human IDO1
Assay type: cell-based
Settings: HEK293 cells transiently transfected with human IDO1; read-out: IDO1 HEK293 Cell Assay, IC50
pIC50: −log10 of the molar value.
Classification field: enter class 1 for pIC50 values not below 7, class 0 for values below it.

Compound	System Under Test	Qualitative Label
N#Cc1cc(N/C(=N\O)c2nonc2SCCNS(=O)(=O)C2CC2)ccc1F [Example 178]	IDO1 (Homo sapiens (Human), UniProt P14902)	class 1
OCCCCCCSc1nonc1/C(=N/O)Nc1ccc(F)c(Br)c1 [Example 53]	IDO1 (Homo sapiens (Human), UniProt P14902)	class 0
O=P(CCSc1nonc1/C(=N/O)Nc1ccc(F)c(Br)c1)(NCc1ccccc1)NCc1ccccc1 [Example 116]	IDO1 (Homo sapiens (Human), UniProt P14902)	class 0
CN1C(=O)NC[C@H]1CSc1nonc1/C(=N/O)Nc1ccc(F)c(C#N)c1 [Example 146]	IDO1 (Homo sapiens (Human), UniProt P14902)	class 0

###

Target: IDO1 (Homo sapiens (Human))
Test: IDO1 Cellular Assay in Frozen HEK293 Cells Transiently Transfected with Human IDO1
Type: cell-based
Conditions: HEK293 cells transiently transfected with human IDO1; read-out: IDO1 HEK293 Cell Assay, IC50
Exam item: assign Criterion met to entries whose IC50 is below 0.2 µM and Criterion not met to entries at or above 0.2 µM. Note that a value of exactly 0.2 µM receives Criterion not met.

Compound	Qualitative Label
Cn1c(CSc2nonc2/C(=N/O)Nc2ccc(F)c(Cl)c2)n[nH]c1=O	Criterion not met
COC(=O)CNP(=O)(CSc1nonc1/C(=N/O)Nc1ccc(F)c(Br)c1)NCC(=O)OC	Criterion met
O=C(CSc1nonc1/C(=N/O)Nc1ccc(F)c(Br)c1)NC[C@@H](O)CO	Criterion met
Cc1nc(CSc2nonc2C(=NO)Nc2ccc(F)c(Br)c2)no1	Criterion not met
O=c1c(NCCSc2nonc2/C(=N/O)Nc2ccc(F)c(Br)c2)c(NCc2ccncc2)c1=O	Criterion not met
Cn1ccnc1CSc1nonc1C(=NO)Nc1ccc(F)c(Br)c1	Criterion met
CC(C)OC(=O)OCOP(=O)(CCSc1nonc1/C(=N/O)Nc1ccc(F)c(Br)c1)OCOC(=O)OC(C)C	Criterion not met
CC(C)(O)C(O)CSc1nonc1/C(=N/O)Nc1ccc(F)c(Br)c1 (stereo not drawn) [Example 29]	Criterion met
O/N=C(\Nc1ccc(F)c(Br)c1)c1nonc1SC1CCNCC1	Criterion not met
CC(=O)NCCSc1nonc1/C(=N/O)Nc1cc(Br)c(F)cc1F	Criterion not met
O=C(CSc1nonc1/C(=N/O)Nc1ccc(F)c(Br)c1)N[C@H]1C[C@@H](O)[C@@H](O)C1	Criterion not met
NC(CCSc1nonc1/C(=N/O)Nc1ccc(F)c(Br)c1)C(=O)O (stereo not drawn)	Criterion not met
COC(=O)CSc1nonc1/C(=N/O)Nc1ccc(F)c(Br)c1	Criterion not met
O/N=C(\Nc1ccc(F)c(Br)c1)c1nonc1SCc1nnc[nH]1	Criterion met
CS(=O)(=O)NCCSc1nonc1/C(=N/O)Nc1ccc(F)c(C(F)F)c1	Criterion met
CC(=O)NCCSc1nonc1/C(=N/O)Nc1ccc(F)c(Br)c1	Criterion met
O=C(O)CCSc1nonc1/C(=N/O)Nc1ccc(F)c(Br)c1	Criterion not met
ON=C(Nc1ccc(F)c(Br)c1)c1nonc1SCCn1ccnc1	Criterion met
CC(C)(C)OC(=O)NCCSc1nonc1/C(=N/O)Nc1ccc(F)c(Br)c1	Criterion not met
O=C(CSc1nonc1/C(=N/O)Nc1ccc(F)c(Br)c1)NC[C@H](O)CO	Criterion not met
NC(=O)CCSc1nonc1/C(=N/O)Nc1ccc(F)c(Br)c1	Criterion met
Nc1c(NCCSc2nonc2/C(=N/O)Nc2ccc(F)c(Br)c2)c(=O)c1=O	Criterion not met
CN1CCN(CCSc2nonc2C(=NO)Nc2ccc(F)c(Br)c2)CC1	Criterion met
N#Cc1cc(N/C(=N\O)c2nonc2SC[C@@H](O)CO)ccc1F	Criterion not met
COCCNS(=O)(=O)NCCSc1nonc1/C(=N/O)Nc1ccc(F)c(Br)c1	Criterion met
O=c1c(NCCSc2nsnc2/C(=N/O)Nc2ccc(F)c(Br)c2)c(NC2CC2)c1=O	Criterion not met
CN/C(=C\[N+](=O)[O-])NCCSc1nonc1C(=NO)Nc1ccc(F)c(Br)c1	Criterion met
O=C(CSc1nonc1/C(=N/O)Nc1ccc(F)c(Br)c1)Nc1ccccc1	Criterion met
O=c1ccc(CSc2nonc2/C(=N/O)Nc2ccc(F)c(Br)c2)n[nH]1	Criterion met
NC(=O)NCCSc1nonc1/C(=N/O)Nc1ccc(F)c(Br)c1	Criterion met
CCc1cccc(N/C(=N\O)c2nonc2SCCNC(C)=O)c1	Criterion met
CC(CO)(CO)NC(=O)CSc1nonc1/C(=N/O)Nc1ccc(F)c(Br)c1	Criterion met
O=C(CSc1nonc1/C(=N/O)Nc1ccc(F)c(Br)c1)NC(CO)CO	Criterion met
CNC(=O)CSc1nonc1/C(=N/O)Nc1ccc(F)c(Br)c1	Criterion met
Cc1nccn1CCSc1nonc1C(=NO)Nc1ccc(F)c(Br)c1	Criterion met

###

Target: IDO1 (Homo sapiens (Human), UniProt P14902)
Test: IDO1 Cellular Assay in Hela Cells Stimulated with IFNγ
Assay type: cell-based
Details: Hela cells stimulated with IFNγ 100 ng/mL; read-out: IDO1 HELA Cell Assay, IC50
pIC50: −log10 of the molar value.
// pIC50 lookup, one value per entry

Compound	pIC50
N#Cc1cc(N/C(=N\O)c2nonc2SCCNC(=O)CO)ccc1F [Example 182]	6.49
N[C@H](CO)CSc1nonc1/C(=N/O)Nc1ccc(F)c(Br)c1 [Example 125]	6.88
OC[C@@H](O)CSc1nonc1/C(=N/O)Nc1ccc(F)c(Cl)c1 [Example 169]	6.72
C[C@H](CO)NC(=O)CSc1nonc1/C(=N/O)Nc1ccc(F)c(Br)c1 [Example 197]	7.82
NCCSc1nonc1/C(=N/O)Nc1ccc(F)c(Br)c1 [Example 2]	7.11
ON=C(Nc1ccc(F)c(Br)c1)c1nonc1SCc1c[nH]cn1 [Example 159]	6.81
N#Cc1cc(N/C(=N\O)c2nonc2SCCNS(N)(=O)=O)ccc1F [Example 181]	6.58

###

// pIC50 lookup, one value per entry
Molecular target: IDO1 (Homo sapiens (Human))
Assay: IDO1 Cellular Assay in Frozen HEK293 Cells Transiently Transfected with Human IDO1
Assay type: cell-based
Settings: HEK293 cells transiently transfected with human IDO1; read-out: IDO1 HEK293 Cell Assay, IC50
pIC50: −log10 of the molar value.
Experimental Endpoint: pIC50

Molecule	Qualifier Operator	Test Value
OCC(O)CSc1nonc1/C(=N/O)Nc1ccc(F)c(Br)c1 (stereo not drawn) [Example 17]	=	7.37
Cn1c(CSc2nonc2/C(=N/O)Nc2ccc(F)c(Br)c2)n[nH]c1=O	=	7.08
NS(=O)(=O)c1ccc(CCSc2nonc2/C(=N/O)Nc2ccc(F)c(Br)c2)cc1	=	6.96
OCC(O)CSc1nonc1/C(=N/O)Nc1ccc(F)c(Br)c1 (single isomer, unassigned) [Example 64]	=	7.12
NCCSc1nonc1/C(=N/O)Nc1ccc(F)c(Br)c1	=	6.67
ON=C(Nc1ccc(F)c(Br)c1)c1nonc1SCCF	=	7.21
CN(C)C(=O)CSc1nonc1C(=NO)Nc1ccc(F)c(Br)c1	=	6.35
O=C(O)CSc1nonc1/C(=N/O)Nc1ccc(F)c(Br)c1	<	5.00
CC(=O)NCCSc1nonc1/C(=N/O)Nc1ccc(F)c(OC(F)(F)F)c1	=	6.75

###

Molecular target: IDO1 (Homo sapiens (Human), UniProt P14902)
Test: IDO1 Enzyme Assay
Conditions: read-out: IDO1 Enzyme Assay, IC50; HIS-tagged recombinant IDO1, 40 nM
pIC50: −log10 of the molar value.

Compound	pIC50
O=c1c(NCCSc2nonc2/C(=N/O)Nc2ccc(F)c(Br)c2)c(NCc2ccncc2)c1=O [Example 95]	7.56
CC(C)OC(=O)OCOP(=O)(CCCSc1nonc1/C(=N/O)Nc1ccc(F)c(Br)c1)OCOC(=O)OC(C)C [Example 109]	6.15
CC(CO)(CO)NC(=O)CSc1nonc1/C(=N/O)Nc1ccc(F)c(Br)c1 [Example 174]	7.08
O=c1c(NCCSc2nsnc2/C(=N/O)Nc2ccc(F)c(Br)c2)c(NC2CC2)c1=O [Example 211]	6.53
CC(=O)NCCSc1nonc1/C(=N/O)Nc1ccc(F)c(C(F)(F)F)c1 [Example 49]	7.19
N#C/N=C(\N)NCCSc1nonc1/C(=N/O)Nc1ccc(F)c(Br)c1 [Example 85]	7.41
C[C@H](O)CNC(=O)CSc1nonc1/C(=N/O)Nc1ccc(F)c(Br)c1 [Example 200]	7.52
CS(=O)(=O)NCCSc1nonc1/C(=N/O)Nc1ccc(F)c(C#N)c1 [Example 171]	6.96

###

Biological target: IDO1 (Homo sapiens (Human), UniProt P14902)
Test: IDO1 Enzyme Assay
Conditions: read-out: IDO1 Enzyme Assay, IC50; HIS-tagged recombinant IDO1, 40 nM
pIC50: −log10 of the molar value.
Experimental Endpoint: pIC50

Molecule	Experimental Endpoint	Qualifier Operator	Test Value
CNC(=O)N1CCC(Sc2nonc2/C(=N/O)Nc2ccc(F)c(Br)c2)CC1	pIC50	=	6.77
O/N=C(\Nc1ccc(F)c(Br)c1)c1nonc1O	pIC50	<	5.00
NS(=O)(=O)NCCSc1nonc1/C(=N/O)Nc1ccc(F)c(Br)c1	pIC50	=	7.10
O/N=C(\Nc1ccc(F)c(Br)c1)c1nonc1SC1CCNCC1	pIC50	=	7.06
O=c1cccc(CSc2nonc2/C(=N/O)Nc2ccc(F)c(Br)c2)[nH]1	pIC50	=	7.49
CC(=O)N[C@H](C)CSc1nonc1/C(=N/O)Nc1ccc(F)c(C#N)c1	pIC50	=	6.66
CN/C(=C\[N+](=O)[O-])NCCSc1nonc1C(=NO)Nc1ccc(F)c(Br)c1	pIC50	=	7.44
CC(C)C(O)CCSc1nonc1/C(=N/O)Nc1ccc(F)c(Br)c1 (stereo not drawn)	pIC50	=	6.48
CC(C)(NC(=O)CSc1nonc1/C(=N/O)Nc1ccc(F)c(Br)c1)C(O)CO (stereo not drawn)	pIC50	=	7.57
